MEASURED ON: PDGFRβ kinase (Homo sapiens (Human))
Sequence (P09619 33-1106): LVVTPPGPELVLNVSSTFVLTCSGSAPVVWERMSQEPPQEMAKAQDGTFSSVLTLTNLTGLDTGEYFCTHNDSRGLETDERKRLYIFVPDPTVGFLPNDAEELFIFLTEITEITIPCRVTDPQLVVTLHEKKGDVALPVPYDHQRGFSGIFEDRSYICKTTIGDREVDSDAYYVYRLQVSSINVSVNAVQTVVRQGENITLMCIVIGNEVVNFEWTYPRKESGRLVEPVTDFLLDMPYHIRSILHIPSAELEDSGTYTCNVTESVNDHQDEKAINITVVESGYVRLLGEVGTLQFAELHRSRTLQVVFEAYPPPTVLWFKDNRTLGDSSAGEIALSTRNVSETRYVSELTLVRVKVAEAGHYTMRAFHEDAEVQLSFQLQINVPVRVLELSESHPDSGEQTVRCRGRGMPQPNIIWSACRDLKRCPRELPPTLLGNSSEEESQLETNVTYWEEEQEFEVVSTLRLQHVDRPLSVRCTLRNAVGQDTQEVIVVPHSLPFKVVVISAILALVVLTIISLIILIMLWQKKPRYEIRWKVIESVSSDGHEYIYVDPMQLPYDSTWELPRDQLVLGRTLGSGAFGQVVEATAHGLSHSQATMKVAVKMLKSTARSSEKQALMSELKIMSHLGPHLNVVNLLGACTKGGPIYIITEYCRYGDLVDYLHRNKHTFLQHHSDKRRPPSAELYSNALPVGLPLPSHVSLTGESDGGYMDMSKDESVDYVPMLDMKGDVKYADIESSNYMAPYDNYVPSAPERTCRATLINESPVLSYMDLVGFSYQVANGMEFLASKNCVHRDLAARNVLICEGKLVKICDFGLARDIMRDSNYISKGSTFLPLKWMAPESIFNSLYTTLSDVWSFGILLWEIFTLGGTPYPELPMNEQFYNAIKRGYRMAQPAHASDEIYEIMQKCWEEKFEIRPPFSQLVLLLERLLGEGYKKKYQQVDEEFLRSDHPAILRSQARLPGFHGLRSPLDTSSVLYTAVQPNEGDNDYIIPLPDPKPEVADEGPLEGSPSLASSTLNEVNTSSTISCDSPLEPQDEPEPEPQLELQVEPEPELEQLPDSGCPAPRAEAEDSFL
METHOD: PDGFRβ kinase assay (radiometric)
Assay type: biochemical
ASSAY CONTEXT: class symbol
ASSAY READOUT: IC50

// solved cases for IC50 follow
>>> reported_value("COc1ccc(COc2ccc(Nc3ccc4ncc(N5CCOCC5)nc4c3C#N)cc2)cc1")
"100 to 300 nM"
>>> reported_value("CCc1ccc(COc2ccc(Nc3ccc4ncc(N5CCOCC5)nc4c3C#N)cc2OC)cc1")
"100 to 300 nM"
>>> reported_value("COc1ccc(COc2ccc(Nc3ccc4ncc(N5CCN(C(C)=O)CC5)nc4c3C#N)cc2OC)cc1")
"300 to 1000 nM"
>>> reported_value("COc1ccc(COc2ccc(Nc3ccc4ncc(N5CCCC5)nc4c3C#N)cc2OC)cc1")
"300 to 1000 nM"
>>> reported_value("COc1cc(Nc2ccc3ncc(N4CCOCC4)nc3c2C#N)ccc1OCc1cnn(CC2CC2)c1")
"300 to 1000 nM"

Reported IC50, compound COc1ccc(COc2ccc(Nc3ccc4ncc(N5CCOCC5)nc4c3C#N)cc2OC)cc1OC : ____
300 to 1000 nM
